Source: patent US20220017622A1

- target-entity: T1, human B7-H4 extracellular domain (human, UniProt Q7Z7D3 29-258);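 further: tested antibody premixed 1:1 with biotinylated parental antibody, 2 h at room temperature on coated ECD, bound biotin detected via streptavidin-HRP, absorbance read at 450 nm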
- T1 construct: For SPR it says only human B7-H4 ECD; also called Hu B7-H4 ECD; huB7-H4 ECD
- T1 sequence: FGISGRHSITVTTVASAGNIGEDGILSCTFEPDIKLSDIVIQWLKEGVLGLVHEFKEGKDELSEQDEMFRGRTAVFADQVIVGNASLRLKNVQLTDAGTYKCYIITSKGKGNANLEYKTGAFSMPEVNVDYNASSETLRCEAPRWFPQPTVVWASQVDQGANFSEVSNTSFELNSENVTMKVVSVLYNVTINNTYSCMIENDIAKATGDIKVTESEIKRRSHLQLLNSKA
- assay: competition ELISA on coated huB7-H4 ECD; competitor biotinylated 0052 (by series, not given)
Recorded pIC50 values for a group of binders are listed next.
Note on pIC50: it is the negative log10 of concentration, concentration in mol/L.

{"binder": "B7-H4 antibody 0391 (antibody, human IgG1, kappa, V domains shown) VH: QVQLQQWGAGLLKPSETLPLTCAVYGGSFSGYYWNWIRQPPGKGLEWIGEINHSGSATYNPSLKSRVTISVDTSKNHFSLKLSSVTAADTAVYFCARGLYNWNVDHWGQGTLVTVSS VL: DIQMTQSPSSLSASVGDRVTITCRASQGIRNDLGWYQQKPGKAPKRLIYAASSLQSGVPSRFSGSGSGTDFTLTISSLQPEDFATYYCLQHASYPYTFGQGTKLEIKR", "pIC50": 7.87}
{"binder": "B7-H4 antibody 0277 (antibody, human IgG1, kappa, V domains shown) VH: EVQLVESGGGLVQPGGSLRLSCAASGGSFSGYYWNWVRQAPGKGLEWVAEINHSGSATYNPSLKSRFTISRDNAKNSLYLQMNSLRAEDTAVYYCARGLYNWNVDHWGQGTLVTVSS VL: DIQMTQSPSSLSASVGDRVTITCRASQGIRNDLGWYQQKPGKAPKRLIYAASSLQSGVPSRFSGSGSGTEFTLTISSLQPEDFATYYCLQHNSYPRTFGGGTKVEIKR", "pIC50": 7.72}
{"binder": "B7-H4 antibody 0544 (antibody, human IgG1, kappa, V domains shown) VH: EVQLVESGGGLVQPGGSLRLSCAASGGSFSGYYWNWIRQPPGKGLEWIGEIDHQGSTKYNPSLKSRVTISVDTAKNSLYLQMNSLRAEDTAVYYCARGLYNWNVDHWGQGTLVTVSS VL: DIQMTQSPSSLSASVGDRVTITCRASQGIRNDLGWYQQKPGKAPKRLIYAASSLQSGVPSRFSGSGSGTDFTLTISSLQPEDFATYYCLQHSSYPRTFGGGTKVEIKR", "pIC50": 7.45}

Next binder, pIC50 to be filled in.
// pIC50 value for B7-H4 antibody 0385 (antibody, human IgG1, kappa, V domains shown) VH: QVQLQQWGAGLLKPSETLPLTCAVYGGSFSGYYWNWIRQPPGKGLEWIGEINHSGSATYNPSLKSRVTISVDTSKNHFSLKLSSVTAADTAVYFCARGLYNWNVDHWGQGTLVTVSS VL: DIQMTQSPSSLSASVGDRVTITCRASQGIRNDLGWYQQKPGKAPKRLIYAASSLQSGVPSRFSGSGSGTDFTLTISSLQPEDFATYYCLQHQSYPRTFGGGTKVEIKR : 8.10
